assayedSystem: thromboxane synthetase (Homo sapiens)
Construct: human platelet microsomes; from tissue; host or cells: human blood platelets (indomethacin-pretreated), microsomes
protocolSummary: Thromboxane A2 (TxA2) synthetase inhibition; Indomethacin pretreated human platelet microsomes, rabbit aorta superfusion bioassay
Type: biochemical
conditionParameters: prostacyclin synthetase / thromboxane synthetase 50% inhibition concentrations
observationType: Ratio of (3) to (1)

Record `CCOC(=O)c1ccccc1OCCn1ccnc1` . Reported Ratio of (3) to (1): > 2,500

Value of measured Ratio of (3) to (1) for the entry `CCOC(=O)Cc1ccc(OCCn2ccnc2)cc1` : > 2,900

`CNC(=O)c1ccc(OCCn2ccnc2)cc1` yielded Ratio of (3) to (1) of > 20,000

Quick note, Ratio of (3) to (1) for `CCOC(=O)Cc1cccc(OCCn2ccnc2)c1` landed at 2,200

So for `NC(=O)c1ccc(OCCn2ccnc2)cc1` , the logged Ratio of (3) to (1) turned out to be > 4,500

So, `CN(C)C(=O)c1ccc(OCCn2ccnc2)cc1` ? Its Ratio of (3) to (1) was > 18,000

###

Kindly state log10(IC50) for each of the entries shown.
assayedSystem: thromboxane synthetase (Homo sapiens)
Construct: human platelet microsomes; from tissue; host or cells: human blood platelets (indomethacin-pretreated), microsomes
Sequence (P24557 1-533): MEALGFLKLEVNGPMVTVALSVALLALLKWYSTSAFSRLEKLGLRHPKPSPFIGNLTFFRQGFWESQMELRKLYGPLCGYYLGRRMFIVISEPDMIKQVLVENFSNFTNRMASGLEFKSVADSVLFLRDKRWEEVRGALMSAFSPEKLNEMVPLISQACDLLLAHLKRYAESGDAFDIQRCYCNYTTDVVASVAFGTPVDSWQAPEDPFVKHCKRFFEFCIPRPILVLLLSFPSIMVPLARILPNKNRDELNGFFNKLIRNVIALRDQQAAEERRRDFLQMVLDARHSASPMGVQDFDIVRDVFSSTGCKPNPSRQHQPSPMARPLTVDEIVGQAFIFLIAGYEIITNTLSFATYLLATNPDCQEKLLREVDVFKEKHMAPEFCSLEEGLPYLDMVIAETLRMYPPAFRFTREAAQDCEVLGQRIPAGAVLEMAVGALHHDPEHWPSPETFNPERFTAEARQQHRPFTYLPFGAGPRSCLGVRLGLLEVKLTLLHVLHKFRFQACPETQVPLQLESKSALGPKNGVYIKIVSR
protocolSummary: Thromboxane A2 (TxA2) synthetase inhibition; Indomethacin pretreated human platelet microsomes, rabbit aorta superfusion bioassay
Format: biochemical
conditionParameters: human platelet microsomes; 5 min pre-incubation; read-out: Molar concentration causing 50% inhibition of (1) thromboxane synthetase
Structures can show the parent of a compound that is named as a salt.
Lab note - IC50 converted to log10 from values in nM.

The value of log10(IC50) recorded for O=C(O)Cc1ccccc1OCCn1ccnc1 [Example 19, Hydrochloride] when tested on thromboxane synthetase (Homo sapiens) reads 2.76

Record `NC(=O)c1ccc(OCCn2ccnc2)cc1` / thromboxane synthetase (Homo sapiens), log10(IC50) recorded as 1.34

Sample `CNC(=O)c1ccc(OCCn2ccnc2)cc1` , system: thromboxane synthetase (Homo sapiens). Its log10(IC50) is 0.70

Case `CCOC(=O)Cc1ccc(OCCn2ccnc2)cc1` , thromboxane synthetase (Homo sapiens), log10(IC50) recorded as 1.53

Short answer on thromboxane synthetase (Homo sapiens) for O=C(O)COc1ccc(OCCn2ccnc2)cc1 [Example 18, Hydrochloride] , log10(IC50): 0.62

Bench note, thromboxane synthetase (Homo sapiens): entry `CN(C)C(=O)c1ccc(OCCn2ccnc2)cc1` , its log10(IC50) = 0.75

Lab entry: thromboxane synthetase (Homo sapiens) assay, compound `c1cn(CCOc2ccc(-c3nnn[nH]3)cc2)cn1` , log10(IC50) = 0.69

Per the reported thromboxane synthetase (Homo sapiens) data, `O=C(c1ccc(OCCn2ccnc2)cc1)N1CCOCC1` has log10(IC50) of 4.00

log10(IC50) for thromboxane synthetase (Homo sapiens) with input `NC(=O)c1ccccc1OCCn1ccnc1` equals 4.00

Readout log10(IC50) for `CCOC(=O)c1ccccc1OCCn1ccnc1` , test system thromboxane synthetase (Homo sapiens), was 1.60
